The measurements presented in this section are drawn from paper PMC10066265.

target-or-test-system: T1, His6-PP1α_(7-330) (UniProt P62136 7-330)
T1 construct: Protein Phosphatase 1 alpha (PP1α), residues 7-330; Captured by its His6 tag on the Ni-NTA chip for SPR; Two Mn2+ at the active site when made in E. coli with MnCl2; also called PP1_(7-330); Protein Phosphatase 1; source: bacterial expression (E. coli) as previously described, purified (Ni-NTA, SEC)
T1 sequence (P62136 7-330): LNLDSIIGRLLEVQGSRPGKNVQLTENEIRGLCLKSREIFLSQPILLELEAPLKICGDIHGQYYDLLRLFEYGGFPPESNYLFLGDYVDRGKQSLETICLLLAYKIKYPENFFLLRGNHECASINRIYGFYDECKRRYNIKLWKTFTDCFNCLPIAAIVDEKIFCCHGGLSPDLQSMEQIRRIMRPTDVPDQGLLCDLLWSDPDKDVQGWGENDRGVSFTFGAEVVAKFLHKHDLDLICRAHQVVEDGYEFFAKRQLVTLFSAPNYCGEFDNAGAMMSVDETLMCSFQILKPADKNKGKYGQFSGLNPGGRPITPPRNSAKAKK
assay-explanation: SPR; His6-PP1 captured on a Ni-NTA sensorchip (NiHC200M), I3 variants injected; 25 °C; 20 mM Tris pH 8.0, 500 mM NaCl, 1 mM MnCl2, 0.5 mM TCEP, 0.05% Tween-20; one-to-one one state or one-to-one two state model
condition-parameters: both partners purified
Measured Kd, listed per entry.

| binder | measure-unit | Kd |
| --- | --- | --- |
| EKKVEWTSDTVDNEHMGRRSSKCCCIYEKPR (domain or fragment, human, UniProt O60927 38-68, looked up, PPP1R11), human, residues 38-68; source: E. coli BL21 (DE3), purified (Ni-NTA, TEV, heat 95 °C, SEC); not shown: His6, N-terminal, cleaved; MBP, N-terminal, cleaved) [SILK_(deletion): I3_(38-68) (Δ27-37)] | nM | 15.2 |
| SLAAALRKRKPEKKVEWTSDTVDNEHMGRRSSKCCCIYEKPR (domain or fragment, human, UniProt O60927 27-68, looked up, PPP1R11), human, residues 27-68; also called I3_(27-68) 29AAA31; source: E. coli BL21 (DE3), purified (Ni-NTA, TEV, heat 95 °C, SEC); not shown: His6, N-terminal, cleaved; MBP, N-terminal, cleaved) [SILK_(dead): I3_(27-68) T29A/I30A/K31A] | nM | 16.8 |
| RVxF_(dead): I3_(1-126) 40KAEA43 (natural protein, human, UniProt O60927 1-126, looked up, PPP1R11), human, residues 1-126; Uniformly 15N-labelled in the NMR experiment, unlabelled in SPR; also called I3_(RAXA) variant; I3 RVxF_(dead); source: E. coli BL21 (DE3), purified (Ni-NTA, TEV, heat 95 °C, SEC); not shown: His6, N-terminal, cleaved; MBP, N-terminal, cleaved) MAEAGAGLSETVTETTVTVTTEPENRSLTIKLRKRKPEKKAEATSDTVDNEHMGRRSSKCCCIYEKPRAFGESSTESDEEEEEGCGHTHCVRGHRKGRRRATLGPTPTTPPQPPDPSQPPPGPMQH | nM | 3460 |
| SSS: I3_(1-126) C60S/C61S/C62S (natural protein, human, UniProt O60927 1-126, looked up, PPP1R11), human, residues 1-126; also called I3_(1-126)SSS; source: E. coli BL21 (DE3), purified (Ni-NTA, TEV, heat 95 °C, SEC); not shown: His6, N-terminal, cleaved; MBP, N-terminal, cleaved) MAEAGAGLSETVTETTVTVTTEPENRSLTIKLRKRKPEKKVEWTSDTVDNEHMGRRSSKSSSIYEKPRAFGESSTESDEEEEEGCGHTHCVRGHRKGRRRATLGPTPTTPPQPPDPSQPPPGPMQH | nM | 300 |
| Inhibitor-3 I3_(1-126) (full-length) (natural protein, human, UniProt O60927 1-126, looked up, PPP1R11), human, 126 aa, residues 1-126; Uniformly 15N-labelled in the NMR experiment, unlabelled in SPR; also called PPP1R11; YPI1; source: E. coli BL21 (DE3), purified (Ni-NTA, TEV, heat 95 °C, SEC); not shown: His6, N-terminal, cleaved; MBP, N-terminal, cleaved) MAEAGAGLSETVTETTVTVTTEPENRSLTIKLRKRKPEKKVEWTSDTVDNEHMGRRSSKCCCIYEKPRAFGESSTESDEEEEEGCGHTHCVRGHRKGRRRATLGPTPTTPPQPPDPSQPPPGPMQH | nM | 15.7 |
| SILK_(dead): I3_(1-126) T29A/I30A/K31A (natural protein, human, UniProt O60927 1-126, looked up, PPP1R11), human, residues 1-126; also called I3_(1-126) 29AAA31; source: E. coli BL21 (DE3), purified (Ni-NTA, TEV, heat 95 °C, SEC); not shown: His6, N-terminal, cleaved; MBP, N-terminal, cleaved) MAEAGAGLSETVTETTVTVTTEPENRSLAAALRKRKPEKKVEWTSDTVDNEHMGRRSSKCCCIYEKPRAFGESSTESDEEEEEGCGHTHCVRGHRKGRRRATLGPTPTTPPQPPDPSQPPPGPMQH | nM | 13.1 |
